# assay.target: Axl (Homo sapiens, UniProt P30530)
# Sequence (P30530 26-894): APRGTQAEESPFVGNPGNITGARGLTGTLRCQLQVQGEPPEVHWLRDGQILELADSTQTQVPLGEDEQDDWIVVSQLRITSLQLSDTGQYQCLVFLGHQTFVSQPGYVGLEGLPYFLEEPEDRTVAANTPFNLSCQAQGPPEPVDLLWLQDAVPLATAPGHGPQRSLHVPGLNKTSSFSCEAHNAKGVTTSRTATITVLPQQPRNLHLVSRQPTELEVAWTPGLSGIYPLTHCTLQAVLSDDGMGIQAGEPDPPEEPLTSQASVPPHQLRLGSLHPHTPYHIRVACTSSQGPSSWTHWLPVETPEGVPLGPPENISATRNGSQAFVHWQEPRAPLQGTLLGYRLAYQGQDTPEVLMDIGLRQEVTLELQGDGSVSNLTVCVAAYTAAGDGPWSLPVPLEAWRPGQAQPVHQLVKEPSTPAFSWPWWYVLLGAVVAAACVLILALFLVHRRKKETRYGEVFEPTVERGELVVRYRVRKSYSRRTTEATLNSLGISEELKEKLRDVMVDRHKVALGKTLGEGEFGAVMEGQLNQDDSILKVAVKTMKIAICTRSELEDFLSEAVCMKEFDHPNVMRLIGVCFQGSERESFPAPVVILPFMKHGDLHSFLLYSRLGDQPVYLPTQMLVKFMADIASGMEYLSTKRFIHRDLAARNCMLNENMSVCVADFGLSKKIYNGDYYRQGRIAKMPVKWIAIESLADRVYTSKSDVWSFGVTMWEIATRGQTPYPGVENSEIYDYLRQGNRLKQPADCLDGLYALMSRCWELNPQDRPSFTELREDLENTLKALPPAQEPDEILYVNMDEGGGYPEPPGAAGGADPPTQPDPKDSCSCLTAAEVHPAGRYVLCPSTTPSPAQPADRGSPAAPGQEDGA
# test: Cellular Axl inhibition ELISA (p-Axl, Gas6-induced) using H1299 cells
# Assay type: cell-based
# Set-up: especially H1299 cell endogenously expresses Axl; endogenous in cells; host or cells: H1299
# condition.context: read-out: Cellular Axl activity by H1299 Elisa (IC50)
pIC50: −log10 of the molar value.
result.type: pIC50

[
  {
    "compound": "COc1cc2nccc(Oc3ccc(NC(=O)c4nn(C5CCCC5)cc4OCC(F)(F)F)nc3)c2cc1OC",
    "assay.target": "Axl (Homo sapiens, UniProt P30530)",
    "pIC50": "> 6.30"
  },
  {
    "compound": "COc1cc2nccc(Oc3ccc(NC(=O)c4nn(C5CC5)cc4OCC4CCC4)nn3)c2cc1OC",
    "assay.target": "Axl (Homo sapiens, UniProt P30530)",
    "pIC50": "> 6.30"
  },
  {
    "compound": "COc1cc2nccc(Oc3ccc(NC(=O)c4nn(CCO)cc4OCC(F)(F)F)cc3)c2cc1OC",
    "assay.target": "Axl (Homo sapiens, UniProt P30530)",
    "pIC50": "> 6.30"
  }
]

Challenge: // query pIC50 value for entry `COc1cc2nccc(Oc3ccc(NC(=O)c4nn(C)cc4OCC(F)(F)F)c(F)c3)c2cc1OC`
Response given: 6.00 to 6.30

Challenge: What measured pIC50 goes with CCCn1cc(OCCC(O)CO)c(C(=O)Nc2ccc(Oc3ccnc4cc(OC)c(OC)cc34)cn2)n1 (centres unmarked) ?
Response given: ≤ 6.00

Challenge: Returns the measured pIC50 for the input compound. Input: COc1cc2nccc(Oc3ccc(NC(=O)c4nn(C5CCOC5)cc4OCC(F)(F)F)cc3C)c2cc1OC (centres unmarked)
Response given: > 6.30

Challenge: What value of pIC50 has been recorded for this entry: COc1cc2nccc(Oc3ccc(NC(=O)c4nn(CC(C)O)cc4OCC(F)(F)F)nc3)c2cc1OC (centres unmarked)
Response given: > 6.30

---

Collected pKd values appear next to each entry.
# assay.target: Axl (Homo sapiens)
# test: LanthaScreen Eu kinase binding assay for Axl
# condition.context: read-out: Axl kinase binding activity (Kd)
pKd: −log10 of the molar value.

Sample records with pKd:
[
  {
    "molecule": "CCCn1cc(OCCN(C)C)c(C(=O)Nc2ccc(Oc3ccnc4cc(OC)c(OC)cc34)c(F)c2)n1 [Compound 165]",
    "assay.target": "Axl (Homo sapiens)",
    "pKd": "6.30 to 7.00"
  },
  {
    "molecule": "COc1cc2nccc(Oc3ccc(NC(=O)c4nn(CCOC5CC5)cc4OCC(F)(F)F)c(F)c3)c2cc1OC [Compound 115]",
    "assay.target": "Axl (Homo sapiens)",
    "pKd": "> 7.00"
  }
]

Challenge: // returns reported pKd for input COc1cc2nccc(Oc3ccc(NC(=O)c4nn(CC(C)O)cc4OCC(F)(F)F)cc3)c2cc1OC (centres unmarked) [Compound 89]
Response given: > 7.00

Challenge: Entry under review: COCCn1cc(OCC(F)(F)F)c(C(=O)Nc2ccc(Oc3ccnc4cc(OC)c(OC)cc34)cc2F)n1 [Compound 49] . Reported pKd?
Response given: > 7.00

Challenge: I have this molecule here, COc1cc2nccc(Oc3ccc(NC(=O)c4nn(CC5CNC5)cc4OCC(F)(F)F)nc3)c2cc1OC [Compound 73] , and I need its recorded pKd.
Response given: 6.30 to 7.00

Challenge: # pKd lookup, item COc1cc2nccc(Oc3ccc(NC(=O)c4nn(CC5COC5)cc4OCC(F)(F)F)cn3)c2cc1OC [Compound 134]
Response given: > 7.00

Challenge: Could you tell me which pKd is on file for CCCn1cc(OC(C)C)c(C(=O)Nc2ccc(Oc3ccnc4cc(OC)c(OC(F)(F)F)cc34)c(F)c2)n1 [Compound 35] ?
Response given: ≤ 6.30

Challenge: Look up pKd: COc1cc2nccc(Oc3ccc(NC(=O)c4nn(CCN(C)C)cc4OCC(F)(F)F)nc3)c2cc1OC [Compound 9]
Response given: > 7.00

Challenge: For the molecule CCCn1cc(N(C)CC2CCOCC2)c(C(=O)Nc2ccc(Oc3ccnc4cc(OC)c(OC)cc34)cn2)n1 [Compound 34] , what pKd is on record?
Response given: ≤ 6.30
